meta.source: paper PMC3672139

SYSTEM TESTED: VEGF165, human (Homo sapiens (Human), UniProt P15692 27-191)
Sequence (P15692 other isoform, or with tags, fused parts or gaps): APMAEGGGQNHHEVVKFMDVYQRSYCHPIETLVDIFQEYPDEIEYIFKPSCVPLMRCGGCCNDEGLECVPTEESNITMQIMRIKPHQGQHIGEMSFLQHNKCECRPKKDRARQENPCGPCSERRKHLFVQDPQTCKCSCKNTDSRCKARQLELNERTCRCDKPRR
TEST NAME: SPR; 10 mM Tris-HCl pH 7.4, 150 mM NaCl, 5 mM KCl, 25 C; protein amine-coupled on CM5
ASSAY CONDITIONS: chain copies: 2
For each record, write down the corresponding pKd.
Give bare numbers, as −log10 of the molar value.

Dear reader, for each entry below, please note its pKd.
1. CGGGGGGTTTTGGGCGGC (structured_DNA, G-quadruplex (promoter-derived)) [RB1 G4]
2. GGAGGCGGGGGGGGGGGGGCGGGGGCGGGGGCGGGGGAGGGGCGCGGC (structured_DNA, G-quadruplex (promoter-derived)) [PDGFA G4]

1: 6.52; 2: 8.00
